Overview of recorded log10 MIC for various molecules
# Test system: carbapenem-resistant Escherichia coli clinical isolates (blaKPC)
# assayProtocol: DDM (digital dispensing method) MIC testing of CRE isolates
# Assay type: cell-based
# measurementContext: Escherichia coli, BIDMC 15, ECO, KPC type 2; read-out: DDM modal MICs
Would you kindly interpret these values as log10 of MIC expressed in µg/mL?

C[C@@H](O)[C@H]1C(=O)N2C(C(=O)O)=C(S[C@@H]3CN[C@H](C(=O)Nc4cccc(C(=O)O)c4)C3)[C@H](C)[C@H]12	1.51
C[C@@H](O)[C@H]1C(=O)N2C(C(=O)O)=C(S[C@@H]3CN[C@H](C(=O)N(C)C)C3)[C@H](C)[C@H]12	0.60
O=C(N[C@H](CO)[C@H](O)c1ccc([N+](=O)[O-])cc1)C(Cl)Cl	0.90
CN(C)c1ccc(O)c2c1C[C@H]1C[C@H]3[C@H](N(C)C)C(O)=C(C(N)=O)C(=O)[C@@]3(O)C(O)=C1C2=O	0.00

State the recorded log10 MIC for this entry: C[C@H]1COc2c(N3CCN(C)CC3)c(F)cc3c(=O)c(C(=O)O)cn1c23
1.51

Same thing, different molecule: C[C@@H]1O[C@@H]1P(=O)(O)O
-0.30

Same thing, different molecule: CO/N=C(\C(=O)N[C@@H]1C(=O)N2C(C(=O)[O-])=C(C[N+]3(C)CCCC3)CS[C@H]12)c1csc(N)n1 [FEP, cefepime]
0.60

Same thing, different molecule: CO[C@H]1/C=C/O[C@@]2(C)Oc3c(C)c(O)c4c(O)c(c(/C=N/N5CCN(C)CC5)c(O)c4c3C2=O)NC(=O)/C(C)=C\C=C\[C@H](C)[C@H](O)[C@@H](C)[C@@H](O)[C@@H](C)[C@H](OC(C)=O)[C@@H]1C
1.51
